Record form. Attribute: Inhibition rate (%) at 2.5 nM. Fill in for each entry.
- Test system: T1, CTLA-4-hFc (immunogen A; hFc-labeled CTLA-4 extracellular domain protein) (human, UniProt P16410 36-161)
- T1 construct: range 36-161; Made in HEK293 cells, purified on protein A; also called CLTA-4-hFc; CTLA-4 protein; not shown: human IgG Fc fragment (hFc) of the pCpC vector
- T1 sequence (looked up): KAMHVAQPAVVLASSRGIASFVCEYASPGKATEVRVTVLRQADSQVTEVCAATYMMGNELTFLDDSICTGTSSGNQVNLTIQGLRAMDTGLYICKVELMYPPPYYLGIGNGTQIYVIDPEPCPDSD
- Assay procedure: ELISA, coated CTLA-4-hFc, competitor biotin-B7.1-hFc
Number in %, nothing else.

IN: Look at this binder and give its reported Inhibition rate (%) at 2.5 nM. 92C8B6 (chimeric antibody purified from hybridoma supernatant) (antibody, V domains shown, also called mAb42; mAb042) VH: QVQLVESGGGVVQPGRSLRLSCAASGFTFSNFGMHWVRQAPGKGLEWVAVIWYDGSNKYYADSVKGRFTISRDNSKNTLFLQMNGLRAEDTAVYYCAKGGILMAGTLDYWGQGTLVTVSS VL: DIQMTQSPSSLSASVGDRVTITCRASQSVSTYLNWYQQKPGKAPKLLIYAASSFQSGVPSRFSGSGSGTDFTLTISSLQPEDFATYFCQQSYSTPFTFGPGTKVDIK
OUT: 94

IN: Can you check 40C4C6 (chimeric antibody purified from hybridoma supernatant) (antibody, V domains shown, also called mAb09; mAb009) VH: QVQLVESGGGVVQPGRSLRLSCAASGFTFSSYGMHWVRQAPGKGLEWVAVIWYDGRNKYYADSVKGRFTISRDNSKNTLYLQMNSLRAEDTAVYYCARASGSYSYYFDYWGQGTLVTVSS VL: DIQMTQSPSSLSASVGGRVTITCRASQSISSFLNWYQHELGKAPKLLIYGASSLQSGVPSRFSGSGSGTDFTLTISSLQPEDFATYYCQQTYSTPFTFGPGTKVDIK next?
OUT: 75.2

IN: Can you check 97A8D1 (chimeric antibody purified from hybridoma supernatant) (antibody, V domains shown, also called mAb49; mAb049) VH: QVQLVESGGGVVQPGRSLRLSCVASGFTFNNYGMNWVRQAPGKGLEWVAVIWYGGRNKFYADSVKGRFTISRDNSKNTLYLEMNSLRAEDTAVYYCARADWGGWFDPWGQGTLVTVSS VL: EIVLTQSPGTLSLSPGERATLSCRASQSVSSTYLAWYQQKPGQAPRLLIHGAFSRATGIPDRFSGSGSGPDFTLTISRLEPEDFAVYYCQQYGTSPFTFGPGTKVDIK next?
OUT: 93
